# test.description: Solubility test: relative solubility by retention time on analytical HPLC
# Type: physicochemical
# experimental.conditions: HPLC retention times under acidic (0.1% TFA); RP-C18, 5→95% ACN in water over 15 minutes; measure of relative solubility
Recorded Retention time values for a group of molecules are listed next.
Number in min, nothing else.

Consider the following illustrative entries.
{"molecule": "COc1cc2c(cc1OCc1cc(O)cc(COc3cc4c(cc3OC)C(=O)N3Cc5ccccc5C[C@H]3C=N4)c1)N=C[C@@H]1Cc3ccccc3CN1C2=O [Ref-3, reference compound]", "numeric.result": 10.00}
{"molecule": "COc1cc2c(cc1OCc1cc(COc3cc4c(cc3OC)C(=O)N3Cc5ccccc5C[C@H]3C=N4)cc(CN(C)C)c1)N=C[C@@H]1Cc3ccccc3CN1C2=O [Ref-1, reference compound]", "numeric.result": 9.30}

As a next step, examine the molecule that follows.
Q. # input molecule: COc1cc2c(cc1OCc1cc(COc3cc4c(cc3OC)C(=O)N3Cc5ccoc5C[C@H]3C=N4)cc(CN(C)C)c1)N=C[C@@H]1Cc3occc3CN1C2=O ; wanted: its Retention time
A. 8.60
